B1: OAS1 (parent)
chain: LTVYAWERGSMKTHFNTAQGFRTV

# Variants of: B1
# METHOD_NOTES: protein stability index of a GFP-peptide fusion (GPS, HEK-293T) (PSI 1-6); higher = more stable;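 also: lentivirally expressed fusions sorted by FACS into six bins by GFP to DsRed ratio, PSI derived from sequencing read proportions per bin multiplied by bin number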
# EXPERIMENTAL_PARAMETERS: c terminus: a fixed tail appended
Decide using protein stability index: a value greater than or equal to 2 is 1, a smaller one is 0.

Consider the following illustrative entries.
VARIANT_CODE: R8H
GROUP_LABEL: 1
//
VARIANT_CODE: M11G
GROUP_LABEL: 1
//
VARIANT_CODE: A18C
GROUP_LABEL: 0
//
VARIANT_CODE: L1A
GROUP_LABEL: 1
//
VARIANT_CODE: L1S
GROUP_LABEL: 1

Here's the next entry for you.
Exam item: decide whether the reported protein stability index for L1G is at least 2.
1
